MEASUREMENT NOTES: Plasma pharmacokinetic studies of idronoxil in rats (rectal in cocoa butter vs intestinal in lipid emulsion)
Format: in vivo, Male Sprague-Dawley rats
CONDITION PARAMETERS: male, Sprague-Dawley, rat, plasma, other: rectal, 10 mg/kg, Rectal delivery, cocoa butter, 10 mg/kg, 3 hr; read-out: Idronoxil Plasma Concentration Rat 2
MEASURED ENDPOINT: concentration at 3 h (ng/mL)

# COMPOUND, READOUT UNIT, EXPERIMENTAL RESULT
data = [
    ("Oc1ccc(C2=Cc3ccc(O)cc3OC2)cc1 [Idronoxil]", "ng/mL", 74.2),
]

----------
MEASUREMENT NOTES: Plasma pharmacokinetic studies of idronoxil in rats (rectal in cocoa butter vs intestinal in lipid emulsion)
Assay type: in vivo, Male Sprague-Dawley rats
CONDITION PARAMETERS: male, Sprague-Dawley, rat, plasma, other: intraduodenal infusion, 10 mg/kg, Intestinal delivery (intraduodenal infusion), lipid emulsion, 10 mg/kg, 2 hr; read-out: Idronoxil Plasma Concentration Rat 1

# SMILES STRUCTURE, concentration at 2 h / ng/mL
rows = [
    ("Oc1ccc(C2=Cc3ccc(O)cc3OC2)cc1", 200),
]

----------
MEASUREMENT NOTES: Plasma pharmacokinetic studies of idronoxil in rats (rectal in cocoa butter vs intestinal in lipid emulsion)
Assay type: in vivo, Male Sprague-Dawley rats
CONDITION PARAMETERS: male, Sprague-Dawley, rat, plasma, other: rectal, 10 mg/kg, Rectal delivery, cocoa butter, 10 mg/kg, 2 hr; read-out: Idronoxil Plasma Concentration Rat 3
MEASURED ENDPOINT: concentration at 2 h (ng/mL)

# SMILES STRUCTURE, EXPERIMENTAL RESULT
measured = [
    ("Oc1ccc(C2=Cc3ccc(O)cc3OC2)cc1", 24.7),
]

----------
MEASUREMENT NOTES: Plasma pharmacokinetic studies of idronoxil in rats (rectal in cocoa butter vs intestinal in lipid emulsion)
Format: in vivo, Male Sprague-Dawley rats
CONDITION PARAMETERS: male, Sprague-Dawley, rat, plasma, other: intraduodenal infusion, 10 mg/kg, Intestinal delivery (intraduodenal infusion), lipid emulsion, 10 mg/kg, 6 hr; read-out: Idronoxil Plasma Concentration Rat 1
MEASURED ENDPOINT: concentration at 6 h (ng/mL)

# SMILES STRUCTURE, READOUT UNIT, EXPERIMENTAL RESULT
records = [
    ("Oc1ccc(C2=Cc3ccc(O)cc3OC2)cc1", "ng/mL", 2.86),
]

----------
MEASUREMENT NOTES: Plasma pharmacokinetic studies of idronoxil in rats (rectal in cocoa butter vs intestinal in lipid emulsion)
Type: in vivo, Male Sprague-Dawley rats
CONDITION PARAMETERS: male, Sprague-Dawley, rat, plasma, other: intraduodenal infusion, 10 mg/kg, Intestinal delivery (intraduodenal infusion), lipid emulsion, 10 mg/kg, 5 hr; read-out: Idronoxil Plasma Concentration Rat 3

# COMPOUND, READOUT UNIT, concentration at 5 h
records = [
    ("Oc1ccc(C2=Cc3ccc(O)cc3OC2)cc1 [Idronoxil]", "ng/mL", 6),
]

----------
MEASUREMENT NOTES: Plasma pharmacokinetic studies of idronoxil in rats (rectal in cocoa butter vs intestinal in lipid emulsion)
Assay type: in vivo, Male Sprague-Dawley rats
CONDITION PARAMETERS: male, Sprague-Dawley, rat, plasma, other: rectal, 10 mg/kg, Rectal delivery, cocoa butter, 10 mg/kg, 1 hr; read-out: Idronoxil Plasma Concentration Rat 2
MEASURED ENDPOINT: concentration at 1 h (ng/mL)

# COMPOUND, MEASURED ENDPOINT, EXPERIMENTAL RESULT
records = [
    ("Oc1ccc(C2=Cc3ccc(O)cc3OC2)cc1 [Idronoxil]", "concentration at 1 h", 96.5),
]

----------
MEASUREMENT NOTES: Plasma pharmacokinetic studies of idronoxil in rats (rectal in cocoa butter vs intestinal in lipid emulsion)
Format: in vivo, Male Sprague-Dawley rats
CONDITION PARAMETERS: male, Sprague-Dawley, rat, plasma, other: rectal, 10 mg/kg, Rectal delivery, cocoa butter, 10 mg/kg, 2 hr; read-out: Idronoxil Plasma Concentration Mean

# COMPOUND, READOUT UNIT, concentration at 2 h
data = [
    ("Oc1ccc(C2=Cc3ccc(O)cc3OC2)cc1 [Idronoxil]", "ng/mL", 42.9),
]

----------
MEASUREMENT NOTES: Plasma pharmacokinetic studies of idronoxil in rats (rectal in cocoa butter vs intestinal in lipid emulsion)
Type: in vivo, Male Sprague-Dawley rats
CONDITION PARAMETERS: male, Sprague-Dawley, rat, plasma, other: rectal, 10 mg/kg, Rectal delivery, cocoa butter, 10 mg/kg, 1 hr; read-out: Idronoxil Plasma Concentration Rat 3
Procedure: The objective of this study in rodents is to determine the plasma pharmacokinetics of idronoxil after rectal delivery and intestinal delivery in lipids (cocoa butter or emulsion). […] Sample analysis: Plasma concentrations of idronoxil were measured by the HMST-lab using a validated HPLC-MS/MS method. […] MS analysis was conducted in positive mode electrospray ionisation and quantitation of the analytes performed in MRM mode. […]

# SMILES STRUCTURE, concentration at 1 h (ng/mL)
rows = [
    ("Oc1ccc(C2=Cc3ccc(O)cc3OC2)cc1", 24.9),
]

----------
MEASUREMENT NOTES: Plasma pharmacokinetic studies of idronoxil in rats (rectal in cocoa butter vs intestinal in lipid emulsion)
Assay type: in vivo, Male Sprague-Dawley rats
CONDITION PARAMETERS: male, Sprague-Dawley, rat, plasma, other: rectal, 10 mg/kg, Rectal delivery, cocoa butter, 10 mg/kg, 6 hr; read-out: Idronoxil Plasma Concentration Rat 1
MEASURED ENDPOINT: concentration at 6 h (ng/mL)

# SMILES STRUCTURE, EXPERIMENTAL RESULT
rows = [
    ("Oc1ccc(C2=Cc3ccc(O)cc3OC2)cc1", 17.8),
]

----------
MEASUREMENT NOTES: Plasma pharmacokinetic studies of idronoxil in rats (rectal in cocoa butter vs intestinal in lipid emulsion)
Assay type: in vivo, Male Sprague-Dawley rats
CONDITION PARAMETERS: male, Sprague-Dawley, rat, plasma, other: rectal, 10 mg/kg, Rectal delivery, cocoa butter, 10 mg/kg, 3 hr; read-out: Idronoxil Plasma Concentration Rat 1

# COMPOUND, concentration at 3 h (ng/mL)
data = [
    ("Oc1ccc(C2=Cc3ccc(O)cc3OC2)cc1 [Idronoxil]", 15.9),
]

----------
MEASUREMENT NOTES: Plasma pharmacokinetic studies of idronoxil in rats (rectal in cocoa butter vs intestinal in lipid emulsion)
Format: in vivo, Male Sprague-Dawley rats
CONDITION PARAMETERS: male, Sprague-Dawley, rat, plasma, other: intraduodenal infusion, 10 mg/kg, Intestinal delivery (intraduodenal infusion), lipid emulsion, 10 mg/kg, 0 hr; read-out: Idronoxil Plasma Concentration Mean
Description: The objective of this study in rodents is to determine the plasma pharmacokinetics of idronoxil after rectal delivery and intestinal delivery in lipids (cocoa butter or emulsion). […] Sample analysis: Plasma concentrations of idronoxil were measured by the HMST-lab using a validated HPLC-MS/MS method. […] MS analysis was conducted in positive mode electrospray ionisation and quantitation of the analytes performed in MRM mode. […]

# SMILES STRUCTURE, concentration at 0 h / ng/mL
data = [
    ("Oc1ccc(C2=Cc3ccc(O)cc3OC2)cc1", 33.8),
]

----------
MEASUREMENT NOTES: Plasma pharmacokinetic studies of idronoxil in rats (rectal in cocoa butter vs intestinal in lipid emulsion)
Type: in vivo, Male Sprague-Dawley rats
CONDITION PARAMETERS: male, Sprague-Dawley, rat, plasma, other: rectal, 10 mg/kg, Rectal delivery, cocoa butter, 10 mg/kg, 8 hr; read-out: Idronoxil Plasma Concentration Mean
Protocol: The objective of this study in rodents is to determine the plasma pharmacokinetics of idronoxil after rectal delivery and intestinal delivery in lipids (cocoa butter or emulsion). […] Sample analysis: Plasma concentrations of idronoxil were measured by the HMST-lab using a validated HPLC-MS/MS method. […] MS analysis was conducted in positive mode electrospray ionisation and quantitation of the analytes performed in MRM mode. […]

# COMPOUND, concentration at 8 h / ng/mL
data = [
    ("Oc1ccc(C2=Cc3ccc(O)cc3OC2)cc1 [Idronoxil]", 18.4),
]

----------
MEASUREMENT NOTES: Plasma pharmacokinetic studies of idronoxil in rats (rectal in cocoa butter vs intestinal in lipid emulsion)
Type: in vivo, Male Sprague-Dawley rats
CONDITION PARAMETERS: male, Sprague-Dawley, rat, plasma, other: intraduodenal infusion, 10 mg/kg, Intestinal delivery (intraduodenal infusion), lipid emulsion, 10 mg/kg, 2 hr; read-out: Idronoxil Plasma Concentration Mean
Method: The objective of this study in rodents is to determine the plasma pharmacokinetics of idronoxil after rectal delivery and intestinal delivery in lipids (cocoa butter or emulsion). […] Sample analysis: Plasma concentrations of idronoxil were measured by the HMST-lab using a validated HPLC-MS/MS method. […] MS analysis was conducted in positive mode electrospray ionisation and quantitation of the analytes performed in MRM mode. […]

# COMPOUND, concentration at 2 h (ng/mL)
rows = [
    ("Oc1ccc(C2=Cc3ccc(O)cc3OC2)cc1 [Idronoxil]", 158),
]
